Reference source for all entries: patent US9624269B2

Entries and their IC50
- TARGET ENTITY: human BACE1 (rhBACE1) (Homo sapiens, UniProt P56817)
- Sequence (P56817 46-501): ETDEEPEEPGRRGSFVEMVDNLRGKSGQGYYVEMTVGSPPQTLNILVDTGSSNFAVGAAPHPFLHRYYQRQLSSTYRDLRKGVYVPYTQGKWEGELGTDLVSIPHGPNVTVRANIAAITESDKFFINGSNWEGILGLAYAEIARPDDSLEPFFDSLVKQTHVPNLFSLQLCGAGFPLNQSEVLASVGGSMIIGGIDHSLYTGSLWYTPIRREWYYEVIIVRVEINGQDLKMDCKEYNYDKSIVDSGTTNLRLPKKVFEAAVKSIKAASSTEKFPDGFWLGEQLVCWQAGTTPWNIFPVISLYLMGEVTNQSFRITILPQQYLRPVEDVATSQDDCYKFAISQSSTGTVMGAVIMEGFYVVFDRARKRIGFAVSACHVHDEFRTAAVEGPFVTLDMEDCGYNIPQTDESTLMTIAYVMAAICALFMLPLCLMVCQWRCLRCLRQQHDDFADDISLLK
- PROTOCOL: BACE1 fluorescence polarization (FP) competition binding assay with 5-TAMRA-BACE020 probe
- CONDITION CONTEXT: competition with 3 nM 5-TAMRA-BACE020, 12 nM rhBACE1, pH 4.4
Positions of bridges follow the written chain, without caps; N, C: chain ends. Residues, ends and D or L forms follow the SMILES beside them.
Numeric only. Scale: nM

CC[C@H](C)[C@@H]1NC(=O)CNC(=O)[C@H](CC(C)C)NC(=O)[C@H](CC(C)C)NC(=O)[C@H](CCCNC(=N)N)NC(=O)[C@@H](NC(=O)[C@H](Cc2ccc(O)cc2)NC(=O)[C@H](CCSC)NC(=O)[C@H](CO)NC(=O)[C@H](CCC(=O)O)NC(=O)[C@H](CCC(=O)O)NC(C)=O)CSSC[C@@H](C(=O)NCC(N)=O)NC(=O)CNC1=O [BACE029] (Ac-EESMYCRLLGIGCG-NH2; disulfide 6-13) = 12

As a next step, examine the molecule that follows.
Exercise: Recorded IC50 for CC[C@H](C)[C@@H]1NC(=O)CNC(=O)[C@H](CC(C)C)NC(=O)[C@H](CC(C)C)NC(=O)[C@H](CCCNC(=N)N)NC(=O)[C@@H](NC(=O)[C@H](Cc2ccc(O)cc2)NC(=O)[C@H](CCSC)NC(=O)[C@H](CO)NC(=O)[C@H](CCC(=O)O)NC(=O)[C@H](CCC(=O)O)NC(=O)[C@H](CC(N)=O)NC(C)=O)CSSC[C@@H](C(=O)N[C@@H](C)C(N)=O)NC(=O)CNC1=O [BACE054] (Ac-NEESMYCRLLGIGCA-NH2; disulfide 7-14) with human BACE1 (rhBACE1) (Homo sapiens, UniProt P56817), please?
Key: 12
